tested on: 422866-222-R5-J1-PDC complex spheroid viability; test: Anticancer human tumor 422866-222-R5-J1-PDC patient-derived pancreatic adenocarcinoma cell line growth inhibition [POLQ]; conditions: second compound 10 µM; first compound 10 µM; stronger effect = lower value
# note: boundary value 80% maps to Not satisfied; viability, T/C below it maps to Satisfied

Please indicate whether the reported viability, T/C of CC1COCCN1c1cc(C2(O)CC3CCC(C2)O3)c2cnn(-c3ccn[nH]3)c2n1 (stereo not given) + Cc1cccc(N(C)C(=O)C2C(O)CCN2c2nc(C)cc(C(F)(F)F)c2C#N)c1 is strictly below 80%.
Not satisfied

Now this one: COc1cc2cc(C(=O)CCC(=O)O)sc2cc1OC + COC1C(OC(N)=O)C(O)C(Oc2ccc3c(O)c(NC(=O)c4ccc(O)c(CC=C(C)C)c4)c(=O)oc3c2C)OC1(C)C
Not satisfied

Now this one: C#Cc1c(F)ccc2cc(O)cc(-c3ncc4c(N5CC6CCC(C5)N6)nc(OCC56CCCN5CC(F)C6)nc4c3F)c12 (stereo not given) + COC1C(OC(N)=O)C(O)C(Oc2ccc3c(O)c(NC(=O)c4ccc(O)c(CC=C(C)C)c4)c(=O)oc3c2C)OC1(C)C
Satisfied

Now this one: CC1COCCN1c1cc(C2(S(C)(=N)=O)CC2)nc(-c2ccnc3[nH]ccc23)n1 (stereo not given) + Nc1ccc(C#CCN(C(=O)Cc2ncc(C(F)(F)F)cc2C(F)(F)F)c2ccc(F)cc2)nn1
Satisfied

Now this one: CCc1cc2c(N3CCc4c(cc(Cn5ccnc5)cc4-c4cn(C)nc4C(F)(F)F)C3=O)cc(C)nc2c(OC)n1 + COC1C(OC(N)=O)C(O)C(Oc2ccc3c(O)c(NC(=O)c4ccc(O)c(CC=C(C)C)c4)c(=O)oc3c2C)OC1(C)C
Not satisfied

Now this one: O=C(Nc1ccc(O)c(NS(=O)(=O)c2ccc(F)cc2)c1)c1ccc(-c2ccccc2)cc1 + Nc1ccc(C#CCN(C(=O)Cc2ncc(C(F)(F)F)cc2C(F)(F)F)c2ccc(F)cc2)nn1
Not satisfied

Now this one: C=CC(=O)N1CCN(c2nc(=O)n(-c3c(C)ccnc3C(C)C)c3nc(-c4c(O)cccc4F)c(F)cc23)C(C)C1 (stereo not given) + Cc1cccc(N(C)C(=O)C2C(O)CCN2c2nc(C)cc(C(F)(F)F)c2C#N)c1
Satisfied

Now this one: CCc1cc2c(N3CCc4c(cc(Cn5ccnc5)cc4-c4cn(C)nc4C(F)(F)F)C3=O)cc(C)nc2c(OC)n1 + Cc1cccc(N(C)C(=O)C2C(O)CCN2c2nc(C)cc(C(F)(F)F)c2C#N)c1
Not satisfied

Now this one: COc1ccc([C@@H](O)c2cc(-c3ncnc4cc(N5CCOCC5)ccc34)c(F)cc2Cl)nn1 + Nc1ccc(C#CCN(C(=O)Cc2ncc(C(F)(F)F)cc2C(F)(F)F)c2ccc(F)cc2)nn1
Satisfied

Now this one: COc1cccc2c1C(=O)c1c(O)c3c(c(O)c1C2=O)CC(O)(C(=O)CO)CC3OC1CC(N)C(O)C(C)O1 (stereo not given) + Cc1cccc(N(C)C(=O)C2C(O)CCN2c2nc(C)cc(C(F)(F)F)c2C#N)c1
Satisfied

###

Would you kindly list viability, T/C for each of these compounds?
tested on: 422866-222-R5-J1-PDC complex spheroid viability; experiment: Anticancer human tumor 422866-222-R5-J1-PDC cell line growth inhibition [POLQ]; conditions: second compound 1 µM; first compound 0.001 µM; stronger effect = lower value;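 also: spheroids exposed to compounds for one week before readout; percent of DMSO vehicle wells luminescence so 100% = untreated viability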
Give just the number in %; leave the unit off.

So what's the measured viability, T/C for this one? Cn1ncnc1[C@H]1c2n[nH]c(=O)c3cc(F)cc(c23)N[C@@H]1c1ccc(F)cc1 + Cc1cccc(N(C)C(=O)C2C(O)CCN2c2nc(C)cc(C(F)(F)F)c2C#N)c1
90.2

Now this one: Cn1ncnc1[C@H]1c2n[nH]c(=O)c3cc(F)cc(c23)N[C@@H]1c1ccc(F)cc1 + Nc1ccc(C#CCN(C(=O)Cc2ncc(C(F)(F)F)cc2C(F)(F)F)c2ccc(F)cc2)nn1
93.6

Now this one: CC[C@@]1(O)C(=O)OCc2c1cc1n(c2=O)Cc2cc3c(CN(C)C)c(O)ccc3nc2-1 + Cc1cccc(N(C)C(=O)C2C(O)CCN2c2nc(C)cc(C(F)(F)F)c2C#N)c1
111

Now this one: Cn1ncnc1[C@H]1c2n[nH]c(=O)c3cc(F)cc(c23)N[C@@H]1c1ccc(F)cc1 + COC1C(OC(N)=O)C(O)C(Oc2ccc3c(O)c(NC(=O)c4ccc(O)c(CC=C(C)C)c4)c(=O)oc3c2C)OC1(C)C
110

Now this one: CC[C@@]1(O)C(=O)OCc2c1cc1n(c2=O)Cc2cc3c(CN(C)C)c(O)ccc3nc2-1 + Nc1ccc(C#CCN(C(=O)Cc2ncc(C(F)(F)F)cc2C(F)(F)F)c2ccc(F)cc2)nn1
108

Now this one: CC[C@@]1(O)C(=O)OCc2c1cc1n(c2=O)Cc2cc3c(CN(C)C)c(O)ccc3nc2-1 + COC1C(OC(N)=O)C(O)C(Oc2ccc3c(O)c(NC(=O)c4ccc(O)c(CC=C(C)C)c4)c(=O)oc3c2C)OC1(C)C
92.3

###

system: 422866-222-R5-J1-PDC complex spheroid viability; test: Anticancer human tumor 422866-222-R5-J1-PDC cell line growth inhibition [POLQ]; conditions: second compound 0.0316 µM; first compound 0.316 µM; stronger effect = lower value;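 also: spheroids exposed to compounds for one week before readout; percent of DMSO vehicle wells luminescence so 100% = untreated viability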
endpoint name: viability, T/C (%)
Give just the number in %; leave the unit off.

Field: viability, T/C (422866-222-R5-J1-PDC complex spheroid viability). Entry: CNCc1ccc(-c2[nH]c3cc(F)cc4c3c2CCNC4=O)cc1 + Cc1cccc(N(C)C(=O)C2C(O)CCN2c2nc(C)cc(C(F)(F)F)c2C#N)c1
91.2

Now this one: O=C(Nc1ccc(O)c(NS(=O)(=O)c2ccc(F)cc2)c1)c1ccc(-c2ccccc2)cc1 + Nc1ccc(C#CCN(C(=O)Cc2ncc(C(F)(F)F)cc2C(F)(F)F)c2ccc(F)cc2)nn1
81.6

Now this one: O=C(c1cc(Cc2n[nH]c(=O)c3ccccc23)ccc1F)N1CCN(C(=O)C2CC2)CC1 + Nc1ccc(C#CCN(C(=O)Cc2ncc(C(F)(F)F)cc2C(F)(F)F)c2ccc(F)cc2)nn1
88.2

Now this one: CC1COCCN1c1cc(-c2ccnn2C)c2ccnc(-c3ccn[nH]3)c2n1 (stereo not given) + Nc1ccc(C#CCN(C(=O)Cc2ncc(C(F)(F)F)cc2C(F)(F)F)c2ccc(F)cc2)nn1
35.8

Now this one: COc1cccc2c1C(=O)c1c(O)c3c(c(O)c1C2=O)CC(O)(C(=O)CO)CC3OC1CC(N)C(O)C(C)O1 (stereo not given) + Cc1cccc(N(C)C(=O)C2C(O)CCN2c2nc(C)cc(C(F)(F)F)c2C#N)c1
41.4

###

tested on: 422866-222-R5-J1-PDC complex spheroid viability; experiment: Anticancer human tumor 422866-222-R5-J1-PDC cell line growth inhibition [POLQ]; details: second compound 3.16 µM; first compound 0.001 µM; stronger effect = lower value;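 also: spheroids exposed to compounds for one week before readout; percent of DMSO vehicle wells luminescence so 100% = untreated viability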
endpoint name: viability, T/C (%)
Give just the number in %; leave the unit off.

Field: viability, T/C (422866-222-R5-J1-PDC complex spheroid viability). Entry: CC[C@@]1(O)C(=O)OCc2c1cc1n(c2=O)Cc2cc3c(CN(C)C)c(O)ccc3nc2-1 + Cc1cccc(N(C)C(=O)C2C(O)CCN2c2nc(C)cc(C(F)(F)F)c2C#N)c1
108

Now this one: CC[C@@]1(O)C(=O)OCc2c1cc1n(c2=O)Cc2cc3c(CN(C)C)c(O)ccc3nc2-1 + Nc1ccc(C#CCN(C(=O)Cc2ncc(C(F)(F)F)cc2C(F)(F)F)c2ccc(F)cc2)nn1
100

Now this one: Cn1ncnc1[C@H]1c2n[nH]c(=O)c3cc(F)cc(c23)N[C@@H]1c1ccc(F)cc1 + COC1C(OC(N)=O)C(O)C(Oc2ccc3c(O)c(NC(=O)c4ccc(O)c(CC=C(C)C)c4)c(=O)oc3c2C)OC1(C)C
87.1

Now this one: Cn1ncnc1[C@H]1c2n[nH]c(=O)c3cc(F)cc(c23)N[C@@H]1c1ccc(F)cc1 + Nc1ccc(C#CCN(C(=O)Cc2ncc(C(F)(F)F)cc2C(F)(F)F)c2ccc(F)cc2)nn1
111

Now this one: CC[C@@]1(O)C(=O)OCc2c1cc1n(c2=O)Cc2cc3c(CN(C)C)c(O)ccc3nc2-1 + COC1C(OC(N)=O)C(O)C(Oc2ccc3c(O)c(NC(=O)c4ccc(O)c(CC=C(C)C)c4)c(=O)oc3c2C)OC1(C)C
105

Now this one: Cn1ncnc1[C@H]1c2n[nH]c(=O)c3cc(F)cc(c23)N[C@@H]1c1ccc(F)cc1 + Cc1cccc(N(C)C(=O)C2C(O)CCN2c2nc(C)cc(C(F)(F)F)c2C#N)c1
101
